ASSAYED SYSTEM: LRRK2 G2019S (Homo sapiens, UniProt Q5S007, G2019S)
Sequence (Q5S007 whole entry G2019S): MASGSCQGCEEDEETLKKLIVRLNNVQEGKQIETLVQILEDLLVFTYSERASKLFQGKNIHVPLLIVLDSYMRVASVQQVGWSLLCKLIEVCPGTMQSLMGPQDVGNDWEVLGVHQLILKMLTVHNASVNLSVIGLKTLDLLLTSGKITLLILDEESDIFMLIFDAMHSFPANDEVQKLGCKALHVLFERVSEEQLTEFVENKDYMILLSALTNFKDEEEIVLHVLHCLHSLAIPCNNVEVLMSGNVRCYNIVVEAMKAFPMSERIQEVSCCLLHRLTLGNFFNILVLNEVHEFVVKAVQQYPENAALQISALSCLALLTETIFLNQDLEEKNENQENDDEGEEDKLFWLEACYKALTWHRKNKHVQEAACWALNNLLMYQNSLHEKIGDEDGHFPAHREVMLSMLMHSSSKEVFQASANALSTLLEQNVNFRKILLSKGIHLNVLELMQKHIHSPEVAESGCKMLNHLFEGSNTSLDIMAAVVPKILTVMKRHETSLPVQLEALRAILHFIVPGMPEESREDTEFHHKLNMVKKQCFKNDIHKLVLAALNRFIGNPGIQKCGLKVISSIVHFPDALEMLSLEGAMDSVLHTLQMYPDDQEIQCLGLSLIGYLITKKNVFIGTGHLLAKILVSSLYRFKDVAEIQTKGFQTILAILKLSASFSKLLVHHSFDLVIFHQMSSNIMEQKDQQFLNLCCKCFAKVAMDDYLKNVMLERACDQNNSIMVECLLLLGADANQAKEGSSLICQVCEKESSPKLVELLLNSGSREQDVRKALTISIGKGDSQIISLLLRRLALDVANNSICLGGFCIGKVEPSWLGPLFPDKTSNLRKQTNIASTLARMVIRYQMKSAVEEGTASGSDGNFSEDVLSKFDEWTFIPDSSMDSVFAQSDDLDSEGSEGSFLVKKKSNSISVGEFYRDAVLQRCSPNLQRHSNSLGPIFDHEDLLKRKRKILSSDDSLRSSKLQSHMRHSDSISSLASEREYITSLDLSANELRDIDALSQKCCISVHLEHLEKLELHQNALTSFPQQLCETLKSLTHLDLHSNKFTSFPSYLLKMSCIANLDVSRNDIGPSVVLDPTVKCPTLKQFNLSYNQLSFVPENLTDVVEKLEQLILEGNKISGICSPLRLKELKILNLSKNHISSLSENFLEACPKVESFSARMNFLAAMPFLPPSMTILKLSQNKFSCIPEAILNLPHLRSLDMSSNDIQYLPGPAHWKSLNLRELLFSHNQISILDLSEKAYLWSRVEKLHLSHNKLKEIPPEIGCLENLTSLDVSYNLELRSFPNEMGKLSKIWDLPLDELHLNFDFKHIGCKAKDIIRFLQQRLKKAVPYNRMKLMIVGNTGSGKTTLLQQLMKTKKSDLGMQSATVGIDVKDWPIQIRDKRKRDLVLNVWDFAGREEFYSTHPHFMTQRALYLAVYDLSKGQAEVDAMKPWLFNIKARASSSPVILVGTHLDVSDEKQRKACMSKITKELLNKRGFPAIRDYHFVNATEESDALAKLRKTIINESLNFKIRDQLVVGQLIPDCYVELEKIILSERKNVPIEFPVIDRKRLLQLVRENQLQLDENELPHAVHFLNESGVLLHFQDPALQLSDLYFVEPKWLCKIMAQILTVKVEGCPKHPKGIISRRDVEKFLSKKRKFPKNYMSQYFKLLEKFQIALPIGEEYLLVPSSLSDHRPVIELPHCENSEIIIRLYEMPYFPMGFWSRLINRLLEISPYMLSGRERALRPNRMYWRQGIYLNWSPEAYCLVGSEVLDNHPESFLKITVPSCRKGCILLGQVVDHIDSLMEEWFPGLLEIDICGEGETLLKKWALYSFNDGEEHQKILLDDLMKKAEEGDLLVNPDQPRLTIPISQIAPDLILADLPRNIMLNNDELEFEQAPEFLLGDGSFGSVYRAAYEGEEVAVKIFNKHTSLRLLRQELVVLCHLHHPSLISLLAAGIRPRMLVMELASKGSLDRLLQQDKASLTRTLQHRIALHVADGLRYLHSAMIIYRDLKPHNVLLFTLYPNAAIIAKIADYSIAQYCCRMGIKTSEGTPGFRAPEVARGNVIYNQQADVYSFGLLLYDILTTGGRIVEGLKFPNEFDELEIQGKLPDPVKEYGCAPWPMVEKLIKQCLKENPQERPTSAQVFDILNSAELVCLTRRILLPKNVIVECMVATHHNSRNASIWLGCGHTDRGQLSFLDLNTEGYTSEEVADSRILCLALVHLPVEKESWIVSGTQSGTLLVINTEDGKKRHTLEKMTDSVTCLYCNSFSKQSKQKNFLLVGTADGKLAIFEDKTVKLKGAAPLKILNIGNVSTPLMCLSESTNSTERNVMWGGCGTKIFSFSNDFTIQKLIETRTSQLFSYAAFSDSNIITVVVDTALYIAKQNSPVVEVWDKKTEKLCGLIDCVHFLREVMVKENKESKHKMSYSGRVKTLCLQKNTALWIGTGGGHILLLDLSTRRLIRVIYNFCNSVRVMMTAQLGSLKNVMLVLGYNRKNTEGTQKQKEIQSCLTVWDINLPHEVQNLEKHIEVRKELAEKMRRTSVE
ASSAY TEXT: LRRK2 G2019S Km ATP LanthaScreen assay
Format: biochemical
CONDITION LABEL: read-out: LRRK2 pIC50 (converted)
TEST READOUT: IC50 (nM)

1. CC1(C)CC(C(=O)Nc2cc3cc(C4CCC(N5CCC(F)C5)CC4)c(Cl)cc3cn2)CCO1 (single isomer, unassigned) [Ex-5.10]    3.02
2. CCOC1CC1C(=O)Nc1cc2cc(C3CCN(C4(C)COCC4O)CC3)c(Cl)cc2cn1 (stereo not shown) [Ex-2.10]    1.15

[P] CC1(N2CCC(c3cc4cc(NC(=O)C5CC5c5cccnc5)ncc4cc3Cl)CC2)COCC1O (single isomer, unassigned) [Ex-4.41]
[Q] CC1(N2CCC(c3cc4cc(NC(=O)C5C6CCCOC65)ncc4cc3Cl)CC2)COCC1O (single isomer, unassigned) [Ex-4.13]
**Query** Which shows the larger IC50 value: P or Q ? Write down the label attached to your selection.
**Result** P
